Molecular target: human TRPA1 (Homo sapiens (Human))
Assay: Measurement of TRPA1 antagonist activity (1): intracellular calcium increase
Type: cell-based
Conditions: 293T cells transfected with human TRPA1 expression plasmid; allylisothiocyanate 20 μM stimulation; intracellular calcium fluorescence; read-out: hTRPA1 IC50
pIC50: −log10 of the molar value.
assay_metric: pIC50

Known pIC50 results, listed for orientation:
{"compound": "C[C@H](NS(=O)(=O)c1cc2cc(F)ccc2o1)C(=O)NCc1cc(-c2ccc(C(F)(F)F)nc2)ccn1", "pIC50": 7.77}
{"compound": "O=C(NCc1cccc(-c2cnc(C(F)(F)F)nc2)c1)[C@@H]1CCCN1S(=O)(=O)c1cc2ccccc2o1", "pIC50": 8.60}
{"compound": "O=C(NCc1ccnc(-c2ccc(F)cc2)c1)[C@@H]1CCCN1S(=O)(=O)c1cc2ccccc2o1", "pIC50": 7.49}
{"compound": "O=C(NCc1ccnc(-c2cc(F)c(F)cc2O)c1)[C@@H]1CCCN1S(=O)(=O)c1cc2cc(F)ccc2o1", "pIC50": 7.54}
{"compound": "Cc1ccc(COc2cccc(CNC(=O)[C@@H]3CCCN3S(=O)(=O)c3cc4cc(F)ccc4o3)c2)cn1", "pIC50": 7.85}

A = O=C(NCc1cccc(COc2ccc(C(F)(F)F)cc2)c1)[C@@H]1CCCN1S(=O)(=O)c1cc2ccccc2o1
B = O=C(NCc1cc(-c2cnc(C(F)(F)F)nc2)ncn1)[C@@H]1CCCN1S(=O)(=O)c1cc2ccccc2o1
## Input Hey, between A and B which has a smaller measured pIC50? Refer to your chosen item by its label in the answer.
## Output A

a = N#Cc1ccc(COc2cc(F)cc(CNC(=O)[C@@H]3CCCN3S(=O)(=O)c3cc4cc(F)ccc4o3)c2)cc1
b = O=C(NCc1ccnc(-c2cnc(C3CC3)nc2)c1)[C@@H]1CCCN1S(=O)(=O)c1cc2cc(F)ccc2o1
## Input Which has the higher pIC50, a or b ? Give the chosen item's label as your response.
## Output a
(a: 8.82, b: 7.38)

----------
Molecular target: human TRPA1 (Homo sapiens (Human), UniProt O75762)
Sequence (O75762 whole entry): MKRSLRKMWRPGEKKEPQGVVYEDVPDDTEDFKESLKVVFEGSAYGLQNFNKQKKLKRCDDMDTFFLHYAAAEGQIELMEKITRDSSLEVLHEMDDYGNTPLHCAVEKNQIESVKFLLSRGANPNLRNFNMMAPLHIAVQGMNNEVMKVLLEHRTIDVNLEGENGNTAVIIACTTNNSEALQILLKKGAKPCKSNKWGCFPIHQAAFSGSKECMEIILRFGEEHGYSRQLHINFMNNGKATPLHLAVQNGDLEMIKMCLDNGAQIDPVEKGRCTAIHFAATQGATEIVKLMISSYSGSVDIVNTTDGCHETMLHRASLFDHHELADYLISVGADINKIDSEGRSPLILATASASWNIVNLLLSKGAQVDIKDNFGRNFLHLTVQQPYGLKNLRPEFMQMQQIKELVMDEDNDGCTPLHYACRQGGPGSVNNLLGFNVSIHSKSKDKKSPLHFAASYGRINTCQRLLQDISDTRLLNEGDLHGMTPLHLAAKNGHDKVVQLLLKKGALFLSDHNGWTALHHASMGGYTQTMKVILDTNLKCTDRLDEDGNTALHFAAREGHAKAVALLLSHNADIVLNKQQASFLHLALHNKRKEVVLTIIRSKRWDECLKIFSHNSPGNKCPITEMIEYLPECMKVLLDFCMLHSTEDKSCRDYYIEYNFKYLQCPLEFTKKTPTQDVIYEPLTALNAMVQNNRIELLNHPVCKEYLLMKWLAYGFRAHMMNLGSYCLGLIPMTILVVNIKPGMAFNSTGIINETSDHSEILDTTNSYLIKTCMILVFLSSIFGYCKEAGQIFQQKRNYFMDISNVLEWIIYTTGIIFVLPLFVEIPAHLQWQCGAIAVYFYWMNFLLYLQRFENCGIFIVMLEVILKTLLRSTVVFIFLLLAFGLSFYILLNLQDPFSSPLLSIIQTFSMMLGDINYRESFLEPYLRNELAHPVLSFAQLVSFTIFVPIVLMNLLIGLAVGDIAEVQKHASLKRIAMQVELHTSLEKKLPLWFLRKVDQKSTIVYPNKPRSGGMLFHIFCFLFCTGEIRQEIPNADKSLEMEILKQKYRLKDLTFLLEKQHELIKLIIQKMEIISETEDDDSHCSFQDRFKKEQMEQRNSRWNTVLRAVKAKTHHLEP
Test: Measurement of TRPA1 antagonist activity (1): intracellular calcium increase
Format: cell-based
Details: 293T cells transfected with human TRPA1 expression plasmid; allylisothiocyanate 20 μM stimulation; intracellular calcium fluorescence; read-out: hTRPA1 IC50
assay_metric: IC50 (nM)

Record excerpt, results attached:
{"structure_notation": "O=C(NCc1ccc(COc2ccccc2)cc1)[C@@H]1CCCN1S(=O)(=O)c1cc2ccccc2o1", "unit_string": "nM", "IC50": 430}
{"structure_notation": "O=C(NCc1cccc(-c2ccc(C(F)(F)F)nc2)n1)[C@@H]1CCCN1S(=O)(=O)c1cc2cc(F)ccc2o1", "unit_string": "nM", "IC50": 29}
{"structure_notation": "O=C(NCc1cccc(OCc2ccnc(C(F)(F)F)c2)c1)[C@@H]1CCCN1S(=O)(=O)c1cc2cc(F)ccc2o1", "unit_string": "nM", "IC50": 2.8}
{"structure_notation": "C[C@H](NS(=O)(=O)c1cc2ccccc2o1)C(=O)NCc1cccc(-c2ccc(C(F)(F)F)nc2)c1", "unit_string": "nM", "IC50": 27}
{"structure_notation": "O=C(NCc1cncc(-c2ccc(C(F)(F)F)nc2)c1)[C@@H]1CCCN1S(=O)(=O)c1cc2ccccc2o1", "unit_string": "nM", "IC50": 20}

a = O=C(NCc1cc(-c2ccc(C(F)(F)F)cc2)ncn1)[C@@H]1CCCN1S(=O)(=O)c1cc2ccccc2o1
b = C[C@H](NS(=O)(=O)c1cc2ccccc2o1)C(=O)NCc1cccc(OCc2ccc(C#N)cc2)c1
## Input Looking only at measured IC50, which entry is lower, a or b ? # reply format: chosen label
## Output a

A = C[C@H](NS(=O)(=O)c1cc2cc(F)ccc2o1)C(=O)NCc1cccc(-c2cnc(C(F)(F)F)cn2)c1
B = O=C(NCc1ccnc(-c2ccc(C(F)(F)F)cc2)c1)[C@@H]1CCCN1S(=O)(=O)c1cc2ccccc2o1
C = O=C(NCc1ccnc(-c2ccc(F)cc2O)c1)[C@@H]1CCCN1S(=O)(=O)c1cc2cc(F)ccc2o1
## Input Give the ascending ranking of the items by reported IC50. Provide your answer as the labels ordered per the instruction.
## Output B, C, A

I = N#Cc1cncc(-c2cccc(CNC(=O)[C@@H]3CCCN3S(=O)(=O)c3cc4cc(F)ccc4o3)c2)c1
II = C[C@H](NS(=O)(=O)c1cc2cc(F)ccc2o1)C(=O)NCc1cccc(-c2ccc(C(F)(F)F)cn2)c1
III = O=C(NCc1cccc(-c2ccc(C(F)(F)F)cc2)n1)[C@@H]1CCCN1S(=O)(=O)c1cc2cc(F)ccc2o1
## Input # ascending order, key=IC50 Respond with an ordered listing of the labels, as requested.
## Output II, I, III
(II: 6.9 nM, I: 31 nM, III: 47 nM)
